Biological target: T1, B-cat-Halo (beta-catenin HaloTag fusion expressed in HEK293 cells) (UniProt P35222 1-781, HaloTag NanoBRET 618 Ligand bound to the HaloTag)
T1 sequence (looked up): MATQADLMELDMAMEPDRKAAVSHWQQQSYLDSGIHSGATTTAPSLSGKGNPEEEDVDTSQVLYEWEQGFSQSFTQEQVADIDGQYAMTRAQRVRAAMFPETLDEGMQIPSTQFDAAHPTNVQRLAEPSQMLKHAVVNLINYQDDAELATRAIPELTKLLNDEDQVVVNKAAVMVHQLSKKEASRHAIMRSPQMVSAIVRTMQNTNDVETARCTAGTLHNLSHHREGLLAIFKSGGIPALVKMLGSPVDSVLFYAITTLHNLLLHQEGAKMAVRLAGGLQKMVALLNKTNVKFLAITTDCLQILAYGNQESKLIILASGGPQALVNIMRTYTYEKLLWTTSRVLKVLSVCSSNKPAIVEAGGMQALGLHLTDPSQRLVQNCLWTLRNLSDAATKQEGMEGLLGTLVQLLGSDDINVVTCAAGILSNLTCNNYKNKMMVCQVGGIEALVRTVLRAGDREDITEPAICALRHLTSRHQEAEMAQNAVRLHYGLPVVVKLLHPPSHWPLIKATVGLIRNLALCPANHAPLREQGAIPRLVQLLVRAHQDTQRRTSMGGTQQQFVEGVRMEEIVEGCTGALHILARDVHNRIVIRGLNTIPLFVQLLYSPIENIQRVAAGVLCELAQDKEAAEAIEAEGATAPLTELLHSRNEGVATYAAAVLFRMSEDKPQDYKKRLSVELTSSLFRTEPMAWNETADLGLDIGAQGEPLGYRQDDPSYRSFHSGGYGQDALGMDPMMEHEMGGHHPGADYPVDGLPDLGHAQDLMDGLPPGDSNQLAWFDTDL
Experiment: cell-based or functional assay
Starred links: 1 amine or outer side, 2 acyl side, 3 side chain; linkers in the order of their positions; H or OH if unused. Positions of bridges follow the written chain, without caps; N, C: chain ends. Non-standard residues stand in square brackets, D forms with d. Primed or numbered codes have the meaning given here. PyrS2″ = (S)-3-amino-1-((pent-4-en-1-yloxy)carbonyl)pyrrolidine-3-carboxylic acid (stapling residue), C=CCCCOC(=O)N1CC[C@@](N[*:1])(C(=O)[*:2])C1; TfeGA = (S)-2-amino-3-((carboxymethyl)(2,2,2-trifluoroethyl)amino)propanoic acid, O=C([C@H](CN(CC(=O)[*:3])CC(F)(F)F)N[*:1])[*:2]; B5(3) = 2,2-bis(4-pentenyl)glycine (stitching residue), C=CCCCC(CCCC=C)(N[*:1])C(=O)[*:2]; Asp(OMe) = [Me]AspE, Asp side-chain methyl ester, COC(=O)C[C@H](N[*:1])C(=O)[*:2]; Phe(3-COOH) = N[C@@H](Cc1cccc(C(=O)O)c1)C(=O)O; Bta = N[C@@H](Cc1csc2ccccc12)C(=O)O; Lys(iPr) = CC(C)NCCCC[C@H](N)C(=O)O; αAllylPro = C=CC[C@@]1(C(=O)O)CCCN1; tBuAla = CC(C)(C)C[C@H](N)C(=O)O; 3Thi = N[C@@H](Cc1ccsc1)C(=O)O; Cha = N[C@@H](CC1CCCCC1)C(=O)O
parameter_measured: NanoBRET Abs IC50

For the binder Ac-[αAllylPro]N[Cha][B5(3)]D[TfeGA][Lys(iPr)]AFL[PyrS2″]F[Bta]Q-NH2 (staple 1-4, 4-11) [I-2341] , report NanoBRET Abs IC50.
> 20 µM

For the binder Ac-[αAllylPro]N[Cha][B5(3)]D[Phe(3-COOH)][Lys(iPr)]AFL[PyrS2″]F[Bta]Q-NH2 (staple 1-4, 4-11) [I-2340] , report NanoBRET Abs IC50.
> 20 µM

For the binder Ac-[αAllylPro][Asp(OMe)][tBuAla][B5(3)]DDAAFL[PyrS2″][3Thi][Bta]Q-NH2 (staple 1-4, 4-11) [I-2359] , report NanoBRET Abs IC50.
> 20 µM
